Please provide measured viability at 24 h, 100 µM for the entries that follow.
assay type: cell-based, human; details: human, Cell viability (%)
Bridge positions count the residues as written; N and C are the ends. Square brackets hold non-standard residues; d marks the D form. Peptide text beside a SMILES is read from it. * marks the point of attachment. Phe(4-guanidino) = N=C(N)Nc1ccc(C[C@H](N)C(=O)O)cc1; X1 = N=C(N)N[C@@H](Cc1ccccc1)C(=O)*

Reported viability at 24 h, 100 µM of CC[C@H](C)[C@H](NC(=O)[C@H](CCCNC(=N)N)NC(=O)[C@H]1CCC(=O)NCCCC[C@H](NC(=O)[C@H](Cc2ccc(NC(=N)N)cc2)NC(=O)[C@H](Cc2c[nH]c3ccccc23)NC(=O)[C@@H]2CCCN2C(=O)[C@@H](NC(=O)[C@@H](N)Cc2ccccc2)C(C)C)C(=O)N[C@@H](CCCCN)C(=O)N[C@@H](Cc2ccccc2)C(=O)N[C@H](CC(C)C)C(=O)N1)C(=O)N[C@@H](CC(C)C)C(N)=O [Peptide 8, FVPW(p-guanidino)F[KKFle]RIL] (H-FVPW[Phe(4-guanidino)]KKF[dL][dE]RIL-NH2; lactam 6-10) : 58%

Reported viability at 24 h, 100 µM of CC[C@H](C)[C@H](NC(=O)[C@H](CCCNC(=N)N)NC(=O)[C@H]1CCC(=O)NCCCC[C@H](NC(=O)[C@H](Cc2ccccc2)NC(=O)[C@H](Cc2c[nH]c3ccccc23)NC(=O)[C@@H]2CCCN2C(=O)[C@@H](NC(=O)[C@H](Cc2ccccc2)NC(=N)N)C(C)C)C(=O)N[C@@H](CCCCN)C(=O)N[C@@H](Cc2ccccc2)C(=O)N[C@H](CC(C)C)C(=O)N1)C(=O)N[C@@H](CC(C)C)C(N)=O [Peptide 3, guanidino-FVPWF[KKFle]RIL] (X1-VPWFKKF[dL][dE]RIL-NH2; lactam 5-9) : 4%

Reported viability at 24 h, 100 µM of CC[C@H](C)[C@H](NC(=O)[C@H](CCCNC(=N)N)NC(=O)[C@@H]1CCCNC(=N)NCCC[C@H](NC(=O)[C@H](Cc2ccccc2)NC(=O)[C@H](Cc2c[nH]c3ccccc23)NC(=O)[C@@H]2CCCN2C(=O)[C@@H](NC(=O)[C@@H](N)Cc2ccccc2)C(C)C)C(=O)N[C@@H](CCCCN)C(=O)N[C@@H](Cc2ccccc2)C(=O)N[C@H](CC(C)C)C(=O)N1)C(=O)N[C@@H](CC(C)C)C(N)=O [Peptide 13, FVPWF{OrnKFlOrn}RIL] : 3%

Reported viability at 24 h, 100 µM of CC[C@H](C)[C@H](NC(=O)[C@H](CCCNC(=N)N)NC(=O)[C@H]1CCC(=O)NCCCC[C@H](NC(=O)[C@H](Cc2ccccc2)NC(=O)[C@H](Cc2c[nH]c3ccccc23)NC(=O)[C@@H]2CCCN2C(=O)[C@@H](NC(=O)[C@@H](N)Cc2ccc(NC(=N)N)cc2)C(C)C)C(=O)N[C@@H](CCCCN)C(=O)N[C@@H](Cc2ccccc2)C(=O)N[C@H](CC(C)C)C(=O)N1)C(=O)N[C@@H](CC(C)C)C(N)=O [Peptide 6, (p-guanidino)FVPWF[KKFle]RIL] (H-[Phe(4-guanidino)]VPWFKKF[dL][dE]RIL-NH2; lactam 6-10) : 2%
